target_of_assay: T1, human interleukin 13 receptor subunit alpha 2 (IL-13RA2) (human, UniProt Q14627 27-380)
T1 construct: whole, on cells; also called IL-13Rα2; CD213A2
T1 sequence (looked up): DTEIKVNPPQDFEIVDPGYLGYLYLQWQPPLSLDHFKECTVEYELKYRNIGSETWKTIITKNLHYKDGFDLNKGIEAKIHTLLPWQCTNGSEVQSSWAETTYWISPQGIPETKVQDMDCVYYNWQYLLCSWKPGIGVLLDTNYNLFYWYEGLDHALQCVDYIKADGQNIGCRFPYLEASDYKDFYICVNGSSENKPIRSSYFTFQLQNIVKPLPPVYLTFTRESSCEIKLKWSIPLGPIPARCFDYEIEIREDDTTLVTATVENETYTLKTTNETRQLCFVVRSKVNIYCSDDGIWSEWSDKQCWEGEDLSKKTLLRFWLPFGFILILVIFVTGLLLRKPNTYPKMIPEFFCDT
test: FACS on A375 cells
List of pEC50 values.
// scale note: pEC50 = -log10(conc_M); give the bare number

Check out these entries, answers already filled in.
61H8C1 H1L2 hIgG1 (antibody, V domains shown, humanized, hIgG1) VH: QVQLVQSGAEVKKPGASVKVSCKASGYTFTSYWTQWVRQAPGQGLEWMGAIYPGDDDTSYNQKFKGRVTMTRDTSTSTVYMELSSLRSEDTAVYYCARGATLLRPFPYWGQGTLVTVSS VL: DIQMTQSPSSLSTSVGDRVTITCKASQDVSTAVAWYQQKPGKSPKLLIYSASYRYTGVPSRFSGSGSGTDFTLTISSLQPEDFATYSCQQHYSIPPTFGQGTKLEIK ... 9.82
61H8C1 H3L4 hIgG1 (antibody, V domains shown, humanized, hIgG1) VH: QVQLVQSGAEVAKPGASVKVSCKASGYTFTSYWTQWIRQAPGQGLEGIGAIYPGDDDTSYNQKFKGRATLTADKSTSTVYMQLSSLRSEDTAVYYCARGATLLRPFPYWGQGTLVTVSS VL: DIVMTQSPSSLSTSVGDRVTITCKASQDVSTAVAWYQQKPGKSPKLLIYSASYRYTGVPDRFTGSGSGTDFTFTISSVQPEDFATYSCQQHYSIPPTFGGGTKLEIK ... 9.70
61H8C1 H2L3 hIgG1 (antibody, V domains shown, humanized, hIgG1) VH: QVQLVQSGAEVAKPGASVKVSCKASGYTFTSYWTQWIRQAPGQGLEGMGAIYPGDDDTSYNQKFKGRVTMTADTSTSTVYMELSSLRSEDTAVYYCARGATLLRPFPYWGQGTLVTVSS VL: DIQMTQSPSSLSTSVGDRVTITCKASQDVSTAVAWYQQKPGKSPKLLIYSASYRYTGVPDRFSGSGSGTDFTFTISSLQPEDFATYSCQQHYSIPPTFGGGTKLEIK ... 9.72
61H8C1 H3L3 hIgG1 (antibody, V domains shown, humanized, hIgG1) VH: QVQLVQSGAEVAKPGASVKVSCKASGYTFTSYWTQWIRQAPGQGLEGIGAIYPGDDDTSYNQKFKGRATLTADKSTSTVYMQLSSLRSEDTAVYYCARGATLLRPFPYWGQGTLVTVSS VL: DIQMTQSPSSLSTSVGDRVTITCKASQDVSTAVAWYQQKPGKSPKLLIYSASYRYTGVPDRFSGSGSGTDFTFTISSLQPEDFATYSCQQHYSIPPTFGGGTKLEIK ... 9.82
61H8C1 H2L1 hIgG1 (antibody, V domains shown, humanized, hIgG1) VH: QVQLVQSGAEVAKPGASVKVSCKASGYTFTSYWTQWIRQAPGQGLEGMGAIYPGDDDTSYNQKFKGRVTMTADTSTSTVYMELSSLRSEDTAVYYCARGATLLRPFPYWGQGTLVTVSS VL: DIQMTQSPSSLSASVGDRVTITCKASQDVSTAVAWYQQKPGKAPKLLIYSASYRYTGVPSRFSGSGSGTDFTLTISSLQPEDFATYYCQQHYSIPPTFGQGTKLEIK ... 9.80

Qu. Given the entry 72B4H4 H4L2 hIgG1 (antibody, V domains shown, humanized, hIgG1) VH: QVQLVQSGAEVVKPGASVKLSCKASGYTFTNYWMNWVKQRPGQGLEWIGRIDAYAGETHYNQKFKDRAILTVDKSTSTAYMELRSLRSEDTAVYYCARGYGDAYGMDHWGQGTLVTVSS VL: DIQMTQSPSSLSASVGDRVTITCRASESVDNYGISFMNWFQQKPGKAPKLLIYAASRQGSGDPSRFSGSGSGTDFTLTISSLQPEDFATYFCQQSKEVPWTFGQGTKVEIK , report its measured pEC50.
Ans. 9.01

Qu. Given the entry 61H8C1 H1L3 hIgG1 (antibody, V domains shown, humanized, hIgG1) VH: QVQLVQSGAEVKKPGASVKVSCKASGYTFTSYWTQWVRQAPGQGLEWMGAIYPGDDDTSYNQKFKGRVTMTRDTSTSTVYMELSSLRSEDTAVYYCARGATLLRPFPYWGQGTLVTVSS VL: DIQMTQSPSSLSTSVGDRVTITCKASQDVSTAVAWYQQKPGKSPKLLIYSASYRYTGVPDRFSGSGSGTDFTFTISSLQPEDFATYSCQQHYSIPPTFGGGTKLEIK , report its measured pEC50.
Ans. 9.70
